tested on: Streptococcus pneumoniae NBRC 102642; conditions: NBRC 102642
Where a SMILES comes first, the peptide text is derived from it. [ ]: non-standard residue; d: D form. The star is where a group is joined. NHCH2CH2OH = OCCN*; For = O=C*
Measured Antibacterial activity MIC, listed per entry for reference.
Write down the numeric answer in nM and omit the unit.

Prompt: Give the measured Antibacterial activity MIC of CNC(=O)C[C@@H](NC(=O)[C@@H](NC(=O)[C@@H](CC(C)C)NC(=O)[C@H](C)NC(=O)[C@@H](CC(C)C)NC(=O)[C@H](C)NC(=O)CNC(=O)[C@@H](NC=O)C(C)C)C(C)C)C(=O)N[C@@H](Cc1c[nH]c2ccccc12)C(=O)N[C@H](CC(C)C)C(=O)N[C@@H](Cc1c[nH]c2ccccc12)C(=O)N[C@H](CC(C)C)C(=O)N[C@@H](Cc1c[nH]c2ccccc12)C(=O)N[C@@H](C(=O)N[C@@H](Cc1c[nH]c2ccccc12)C(=O)NCCO)[C@H](C)O [B22] (For-VGA[dL]A[dL]V[dD](NHMe)W[dL]W[dL]W[dT]W-NHCH2CH2OH) .
Response: 1000

Prompt: Give the measured Antibacterial activity MIC of CC(C)C[C@@H](NC(=O)[C@H](C)NC(=O)[C@H](NC(=O)[C@H](C)NC(=O)CNC(=O)[C@@H](NC=O)C(C)C)[C@H](C)O)C(=O)N[C@H](C(=O)N[C@H](CC(C)C)C(=O)N[C@@H](Cc1c[nH]c2ccccc12)C(=O)N[C@@H](C(=O)N[C@@H](Cc1c[nH]c2ccccc12)C(=O)N[C@H](CC(C)C)C(=O)N[C@@H](Cc1c[nH]c2ccccc12)C(=O)N[C@@H](C(=O)N[C@@H](Cc1c[nH]c2ccccc12)C(=O)NCCO)C(C)C)[C@H](C)O)C(C)C [B21] (For-VGA[dT]A[dL]V[dL]W[dT]W[dL]W[dV]W-NHCH2CH2OH) .
Response: 530

Prompt: Give the measured Antibacterial activity MIC of CC(C)C[C@@H](NC(=O)[C@H](C)NC(=O)[C@H](NC(=O)[C@H](C)NC(=O)CNC(=O)[C@@H](NC=O)C(C)C)C(C)C)C(=O)N[C@H](C(=O)N[C@@H](C(=O)N[C@@H](Cc1c[nH]c2ccccc12)C(=O)N[C@@H](C(=O)N[C@@H](Cc1c[nH]c2ccccc12)C(=O)N[C@H](CC(C)C)C(=O)N[C@@H](Cc1c[nH]c2ccccc12)C(=O)N[C@H](CC(C)C)C(=O)N[C@@H](Cc1c[nH]c2ccccc12)C(=O)NCCO)C(C)C)C(C)C)C(C)C [B02] (For-VGA[dV]A[dL]V[dV]W[dV]W[dL]W[dL]W-NHCH2CH2OH) .
Response: 8.3

Prompt: Give the measured Antibacterial activity MIC of CC(C)C[C@@H](NC(=O)[C@H](C)NC(=O)CNC(=O)[C@@H](NC=O)C(C)C)C(=O)N[C@@H](C)C(=O)N[C@@H](C(=O)N[C@H](C(=O)N[C@@H](C(=O)N[C@@H](Cc1c[nH]c2ccccc12)C(=O)N[C@@H](C(=O)N[C@@H](Cc1c[nH]c2ccccc12)C(=O)N[C@H](CC(C)C)C(=O)N[C@@H](Cc1c[nH]c2ccccc12)C(=O)N[C@@H](C(=O)N[C@@H](Cc1c[nH]c2ccccc12)C(=O)NCCO)C(C)C)C(C)C)C(C)C)C(C)C)C(C)C [B04] (For-VGA[dL]A[dV]V[dV]W[dV]W[dL]W[dV]W-NHCH2CH2OH) .
Response: 8.4

***
Prompt: Give the measured Antibacterial activity MIC of CC(C)C[C@@H](NC(=O)[C@H](Cc1c[nH]c2ccccc12)NC(=O)[C@H](NC(=O)[C@@H](NC(=O)[C@H](NC(=O)[C@H](C)NC(=O)[C@H](NC(=O)[C@H](C)NC(=O)CNC(=O)[C@@H](NC=O)C(C)C)C(C)C)C(C)C)C(C)C)C(C)C)C(=O)N[C@@H](Cc1c[nH]c2ccccc12)C(=O)N[C@@H](C(=O)N[C@@H](Cc1c[nH]c2ccccc12)C(=O)N[C@@H](C(=O)N[C@@H](Cc1c[nH]c2ccccc12)C(=O)NCCO)C(C)C)C(C)C [B01] (For-VGA[dV]A[dV]V[dV]W[dL]W[dV]W[dV]W-NHCH2CH2OH) .
Response: 2.1
